Assay: In vitro stability testing in 2% hog kidney homogenate
Type: in vitro ADME
Settings: pig, kidney or brush border membranes, pH 7
Positions of bridges follow the written chain, without caps; N, C: chain ends. Non-standard residues stand in square brackets, D forms with d. Residues, ends and D or L forms follow the SMILES beside them. *: point of attachment. X1 = C[N+](C)(C)[C@@H](Cc1ccccc1)C(=O)*; NMeF = CN[C@@H](Cc1ccccc1)C(=O)O
readout label: half-life at 0.5 mg/ml (h)
Give just the number in h; leave the unit off.

Known half-life at 0.5 mg/ml results, listed for orientation:
CC[C@H](C)[C@H](NC(=O)[C@@H]1CCCN1C(=O)[C@@H](NC(=O)[C@H](Cc1ccccc1)[N+](C)(C)C)C(C)C)C(=O)N[C@@H](Cc1ccccc1)C(=O)N[C@H](C(=O)N[C@@H](Cc1ccc(O)cc1)C(=O)NCC(=O)N[C@@H](CCC(=O)O)C(=O)N[C@H]1CC(=O)NCCCC[C@@H](C(=O)N[C@H](CCCCN)C(N)=O)NC(=O)[C@H](CC(C)C)NC(=O)[C@H](CCCNC(=N)N)NC(=O)[C@H](C)NC1=O)[C@@H](C)O [SEQ ID NO:11] (X1-VPIFTYGEDARLK[dK]-NH2; lactam 9-13): 7.28
CC[C@H](C)[C@H](NC(=O)[C@@H]1CCCN1C(=O)[C@@H](NC(=O)[C@H](Cc1ccccc1)[N+](C)(C)C)C(C)C)C(=O)N[C@@H](Cc1ccccc1)C(=O)N[C@H](C(=O)N[C@@H](Cc1ccc(O)cc1)C(=O)NCC(=O)N[C@@H](CCC(=O)O)C(=O)N[C@H]1CC(=O)NCCCC[C@@H](C(N)=O)NC(=O)[C@H](CC(C)C)NC(=O)[C@H](CCCNC(=N)N)NC(=O)[C@H](C)NC1=O)[C@@H](C)O [SEQ ID NO:16] (X1-VPIFTYGEDARLK-NH2; lactam 9-13): 1.72

Query molecule follows.
Qu. Read off the recorded half-life at 0.5 mg/ml for CC[C@H](C)[C@H](NC(=O)[C@@H]1CCCN1C(=O)[C@@H](NC(=O)[C@H](Cc1ccccc1)NC)C(C)C)C(=O)N[C@@H](Cc1ccccc1)C(=O)N[C@H](C(=O)N[C@@H](Cc1ccc(O)cc1)C(=O)NCC(=O)N[C@@H](CCC(=O)O)C(=O)N[C@H]1CCC(=O)NCCCC[C@@H](C(N)=O)NC(=O)[C@H](CC(C)C)NC(=O)[C@H](CCCNC(=N)N)NC(=O)[C@H](CCC(N)=O)NC1=O)[C@@H](C)O [SEQ ID NO:22] (H-[NMeF]VPIFTYGEEQRLK-NH2; lactam 10-14)
Ans. 0.583
